System: antibody 2 raised against Immunogen II
Format: binding, sheep
Study Conditions: Antibody 2; Hapten B-HRP conjugate
So basically: is IC50 under 9 ng/mL? Then rule met. Not under? Then rule not met.

# input Confirm or reject: IC50 of `FC(F)(F)c1cccc(N2CCNCC2)c1` lies strictly below 9 ng/mL
# output rule met

# input Confirm or reject: IC50 of `Clc1cccc(N2CCNCC2)c1` lies strictly below 9 ng/mL
# output rule met

# input Confirm or reject: IC50 of `Fc1ccc(N2CCNCC2)cc1` lies strictly below 9 ng/mL
# output rule met

# input Confirm or reject: IC50 of `c1ccc(N2CCNCC2)cc1` lies strictly below 9 ng/mL
# output rule met

# input Confirm or reject: IC50 of Oc1ccc(N2CCNCC2)cc1 [1-(4-hydroxyphenyl)piperazine] lies strictly below 9 ng/mL
# output rule not met

# input Confirm or reject: IC50 of `COc1ccc(N2CCNCC2)cc1` lies strictly below 9 ng/mL
# output rule not met

# input Confirm or reject: IC50 of `Cc1cccc(N2CCNCC2)c1` lies strictly below 9 ng/mL
# output rule met
